Target or system Adenosine receptor A2a (Homo sapiens); metric Ki; compiled from varied reports.

As a guide, the following entries are already answered.
1) CCCn1c(=O)c2[nH]c(-c3cnn(Cc4nc(-c5cccc(Cl)c5)no4)c3)nc2n(CCC)c1=O : > 5 µM
2) Nc1nc(SCCCCC(=O)O)c2[nH]cnc2n1 : > 100 µM

Next molecule, Ki to be filled in.
Fill in the blank: the reported Ki of `CNC(=O)c1cnn(-c2nc(NC3CCCCC3)c3ncn([C@@H]4O[C@H](CO)[C@@H](O)[C@H]4O)c3n2)c1` is ____.
> 5 µM

====

Target or system Adenosine receptor A2a (Homo sapiens, UniProt P29274); metric Ki; compiled from varied reports.
RECORDED_METRIC: Ki (nM)

1) COc1ccc(-n2nc3c(N)nc(C)cn3c2=O)cc1 : 1040
2) Cc1cc(NC(=O)CC(C)(C)C)ccc1C(=O)Nc1nccs1 : 200
3) COCCOc1ccc(N2CCN(CCN(C)c3cc4nc(-c5ccco5)nn4c(N)n3)CC2)cc1 : 2.5
4) Nc1cc(-c2ccco2)cn2cc(-c3ccccc3)nc12 : 418
5) CCCn1c(=O)c2nc(-c3cnn(Cc4ccc(Cl)cc4)c3)[nH]c2n(CCC)c1=O : 88

[P] CCn1nnc([C@H]2O[C@@H](n3cnc4c(N)nc(N[C@H](CO)Cc5ccc(Cl)cc5)nc43)[C@H](O)[C@@H]2O)n1
[Q] CCCCC#Cc1nc(NC2CCCC2)c2ncn([C@H]3[C@H](O)[C@H](O)[C@@H]4C[C@@H]43)c2n1
[R] Nc1nc(Nc2ccccc2)nc2sc(-c3ccco3)nc12
Sort by Ki, descending. In plain terms: list the labels in the order you were asked to.
Q, R, P
(Q: 1760 nM, R: 782 nM, P: 270 nM)

[P] Nc1c(C(=O)Nc2ccccc2F)sc2nc3c(cc12)C(=O)CCC3
[Q] CCOC(=O)c1cnc(N2CCOCC2)n2nc(-c3ccco3)nc12
Sorting ascending by Ki, which comes first: P or Q ? // respond with label for picked entry
P
(P: 300 nM, Q: 17600 nM)
